Biological target: MAGL (Mus musculus (Mouse), UniProt O35678)
Sequence (O35678 whole entry): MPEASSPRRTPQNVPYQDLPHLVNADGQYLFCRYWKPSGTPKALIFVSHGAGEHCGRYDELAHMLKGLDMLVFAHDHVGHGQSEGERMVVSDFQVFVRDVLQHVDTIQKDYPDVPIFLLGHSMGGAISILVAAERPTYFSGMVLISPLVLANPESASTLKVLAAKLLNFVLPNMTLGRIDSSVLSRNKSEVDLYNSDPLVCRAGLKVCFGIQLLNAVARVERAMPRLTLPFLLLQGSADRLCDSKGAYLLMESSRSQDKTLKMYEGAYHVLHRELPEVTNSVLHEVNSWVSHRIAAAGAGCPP
Experiment: In vitro competitive activity-based protein profiling, MAGL (mouse)
Format: biochemical
Conditions: 1 μM, read-out: MAGL % inh. 1 μM (mouse)
assay-metric: inhibition at 1 µM

CC(=O)N(C)c1cnn(C(=O)N2CCN(Cc3ccc(N4CCOCC4)cc3)CC2)c1 : 50 to 75%
CC(=O)N(C)c1cnn(C(=O)N2C[C@H]3C[C@@H](N(Cc4ccccc4Cl)C(C)=O)C[C@H]3C2)c1 : ≥ 75%
Cc1noc(-c2ccc(CN3CCN(C(=O)n4cc(NS(C)(=O)=O)cn4)CC3)c(C(F)(F)F)c2)n1 : 25 to 50%
CC(=O)N(C)c1cnn(C(=O)N2CCN(Cc3ccccc3F)CC2)c1 : ≥ 75%

Q: Consider the molecule `CC(=O)N(C)c1cnn(C(=O)N2CC3(CCN(Cc4ccc(CN5CCOCC5)cc4)CC3)C2)c1` and give its measured inhibition at 1 µM.
Ans: 25 to 50%

Q: Consider the molecule `COc1ccc(CN2CC3(CCN(C(=O)n4cc(N(C)C(C)=O)cn4)CC3)C2)cc1` and give its measured inhibition at 1 µM.
Ans: 50 to 75%

Q: Consider the molecule `CC(=O)Nc1cnn(C(=O)N2CCC3(CCN(Cc4cc(Cl)cc(C(F)(F)F)c4)C3)CC2)c1` and give its measured inhibition at 1 µM.
Ans: ≥ 75%
